Counter-ions that a name gives are not always drawn.
The following compounds are listed with their measured melting point values.
OBSERVED PROPERTY: melting point

INSERT INTO measurements (compound, observed_property, result) VALUES
  ('OCc1cc(N2CCN(CCc3c[nH]c4cc(Cl)ccc34)CC2)c2cc[nH]c2c1', 'melting point', '194 to 196 °C'),
  ('Clc1ccc2c(CCN3CC=C(c4cccc5[nH]ccc45)CC3)c[nH]c2c1 (as salt: fumarate)', 'melting point', '225 to 226 °C'),
  ('Clc1ccc2[nH]cc(CCN3CCN(c4ccc5[nH]ccc5c4)CC3)c2c1 (as salt: fumarate)', 'melting point', '232 to 234 °C'),
  ('Cc1ccc2occ(CCN3CCN(c4cccc5[nH]ccc45)CC3)c2c1 (as salt: hydrochloride)', 'melting point', '258 to 260 °C');
